- test method notes: PK/PD study in wild type mice, exposure
- Format: in vivo, Balb/c mice
- condition: Balb/c, mouse, in vivo, oral, doses ≥120 mg/kg, read-out: AUC0-24
- Method: Two pharmacokinetic (PK)/phamacodynamic (PD) studies were conducted in Balb/c mice that were administered Compound 1 once daily by oral gavage (formulated in 10% Cremophor EL/10% PG/80% DI water) for 7 days (QD×7) at doses of 0 (vehicle), 3.75, 7.5, 15, 30, 60 mg/kg (Study 1); 0 (vehicle), 7.5, 15, 30, 60, 120, or 240 mg/kg (Study 2). On the 7th day, whole blood was collected 24 hours after dosing and snap frozen. Samples were later thawed and analyzed by LC/MS for 2,3-DPG and ATP levels.
property label: AUC(0-t)

What measured AUC(0-t) goes with O=C([C@H](CO)c1ccccc1)N1CC2=C(C1)CN(S(=O)(=O)c1cnc3c(c1)OCCO3)C2 (single isomer, unassigned) ?
> 5200 ng·h/mL
